Just for reference, patent US20200216495A1 is where these values come from.

# experimentalTarget: T1, Tau40 P301L protein (human)
# T1 sequence: WIKIRR
# assayProtocol: cell-based or functional assay
Square brackets hold non-standard residues; d marks the D form. Ends that are not written are not given here. dCha = N[C@H](CC1CCCCC1)C(=O)O
Examples of binders with documented IC50, Tau40 assay (ThT) follow.
Use nM as the unit, but write only the number.

// worked examples, IC50, Tau40 assay (ThT) included
[dL][dK][dCha][dR][dI][dH][dY] [lkbrihy (PEPTIDE ID NO: 252)]: 1160
[dW][dR][dCha][dK][dCha][dR][dW] (not fully specified; printed as wrbkbrw) [wrbkbrw]: 9330
[dL][dK][dI][dR][dCha][dH][dY] [lkirbhy (PEPTIDE ID NO: 228)]: 900

Next:
binder [dCha][dK][dI][dR][dI][dH][dY] [bkirihy (PEPTIDE ID NO: 249)] , IC50, Tau40 assay (ThT) observed: 1090
